Target: Thrombin (recombinant thrombin) (Homo sapiens, UniProt P00734)
Construct: purchased R&D
Experiment: IC50 determination, spectrophotometric protease assay
Format: biochemical
Details: read-out: Thrombin IC50; desthiobiotin probes; 15 min preincubation at 37°C; mean ± SD
metric: IC50 (nM)

| molecule | measurement target | metric | comparison sign | numeric value |
| --- | --- | --- | --- | --- |
| C[C@@H]1NC(=O)N[C@@H]1CCCCCC(=O)NCCOCCOCCOCCn1cc(CCCOC(=O)NC(CCCCN)P(=O)(Oc2ccccc2)Oc2ccccc2)nn1 (stereo partly shown) [47b] | Thrombin (recombinant thrombin) (Homo sapiens, UniProt P00734) | IC50 | = | 3550 |
| CC(=O)Nc1ccc(OP(=O)(Oc2ccc(NC(C)=O)cc2)C(CCCCN)NC(=O)OCCCc2cn(CCOCCOCCOCCNC(=O)CCCCC[C@H]3NC(=O)N[C@H]3C)nn2)cc1 (stereo partly shown) [49b] | Thrombin (recombinant thrombin) (Homo sapiens, UniProt P00734) | IC50 | = | 1180 |
| CC(=O)Nc1ccc(OP(=O)(Oc2ccc(NC(C)=O)cc2)C(NC(=O)OCCCc2cn(CCOCCOCCOCCNC(=O)CCCCC[C@H]3NC(=O)N[C@H]3C)nn2)c2ccc(NC(=N)N)cc2)cc1 (stereo partly shown) [56b] | Thrombin (recombinant thrombin) (Homo sapiens, UniProt P00734) | IC50 | > | 10000 |
| C[C@@H]1NC(=O)N[C@@H]1CCCCCC(=O)NCCOCCOCCOCCn1cc(CCCOC(=O)NC(CCCNC(=N)N)P(=O)(Oc2ccccc2)Oc2ccccc2)nn1 (stereo partly shown) [45b] | Thrombin (recombinant thrombin) (Homo sapiens, UniProt P00734) | IC50 | = | 610 |
| C[C@@H]1NC(=O)N[C@@H]1CCCCCC(=O)NCCOCCOCCOCCn1cc(CCCOC(=O)NC(CCCNC(=N)N)P(=O)(Oc2ccc(Cl)cc2)Oc2ccc(Cl)cc2)nn1 (stereo partly shown) [46b] | Thrombin (recombinant thrombin) (Homo sapiens, UniProt P00734) | IC50 | = | 40 |
| C[C@@H]1NC(=O)N[C@@H]1CCCCCC(=O)NCCOCCOCCOCCn1cc(CCCOC(=O)NC(c2ccc(NC(=N)N)cc2)P(=O)(Oc2ccc(Cl)cc2)Oc2ccc(Cl)cc2)nn1 (stereo partly shown) [57b] | Thrombin (recombinant thrombin) (Homo sapiens, UniProt P00734) | IC50 | > | 10000 |
| C[C@@H]1NC(=O)N[C@@H]1CCCCCC(=O)NCCOCCOCCOCCn1cc(CCCOC(=O)NC(c2ccc(NC(=N)N)cc2)P(=O)(Oc2ccccc2)Oc2ccccc2)nn1 (stereo partly shown) [55b] | Thrombin (recombinant thrombin) (Homo sapiens, UniProt P00734) | IC50 | > | 10000 |
